# test system: T1, human αvβ3 integrin ITGAVB3 (human, UniProt P06756 31-992; P05106 27-718, limits assumed)
# T1 construct: Recombinant heterodimer used as immunogen, ELISA coating and SPR ligand; also called A5B3; A5b3
# T1 sequence (P06756 31-992 limits assumed, chain 1 of 2): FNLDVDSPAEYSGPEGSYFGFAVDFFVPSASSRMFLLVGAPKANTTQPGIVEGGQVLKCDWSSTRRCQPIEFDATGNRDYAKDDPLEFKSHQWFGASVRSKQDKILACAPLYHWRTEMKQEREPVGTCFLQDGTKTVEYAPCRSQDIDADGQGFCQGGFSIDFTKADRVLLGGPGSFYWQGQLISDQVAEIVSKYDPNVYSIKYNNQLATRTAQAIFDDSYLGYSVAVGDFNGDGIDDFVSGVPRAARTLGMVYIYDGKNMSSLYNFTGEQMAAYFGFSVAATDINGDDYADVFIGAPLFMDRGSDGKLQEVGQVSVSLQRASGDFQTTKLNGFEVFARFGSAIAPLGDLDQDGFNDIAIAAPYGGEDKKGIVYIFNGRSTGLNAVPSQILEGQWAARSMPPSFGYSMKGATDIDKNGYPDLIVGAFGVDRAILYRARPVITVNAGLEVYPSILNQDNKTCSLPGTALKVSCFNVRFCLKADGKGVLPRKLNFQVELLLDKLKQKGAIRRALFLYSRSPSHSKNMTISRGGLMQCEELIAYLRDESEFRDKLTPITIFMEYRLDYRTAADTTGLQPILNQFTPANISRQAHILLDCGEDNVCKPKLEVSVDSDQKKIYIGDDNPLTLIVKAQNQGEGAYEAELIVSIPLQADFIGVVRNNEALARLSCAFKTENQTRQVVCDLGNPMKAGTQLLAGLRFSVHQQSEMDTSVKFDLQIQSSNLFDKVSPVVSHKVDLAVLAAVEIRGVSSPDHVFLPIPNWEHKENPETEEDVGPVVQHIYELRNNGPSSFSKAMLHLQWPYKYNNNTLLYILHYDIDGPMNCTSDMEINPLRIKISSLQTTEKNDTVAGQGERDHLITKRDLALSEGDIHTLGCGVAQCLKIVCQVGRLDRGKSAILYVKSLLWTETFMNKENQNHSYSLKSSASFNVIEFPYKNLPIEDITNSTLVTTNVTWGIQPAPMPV
# T1 sequence (P05106 27-718 limits assumed, chain 2 of 2): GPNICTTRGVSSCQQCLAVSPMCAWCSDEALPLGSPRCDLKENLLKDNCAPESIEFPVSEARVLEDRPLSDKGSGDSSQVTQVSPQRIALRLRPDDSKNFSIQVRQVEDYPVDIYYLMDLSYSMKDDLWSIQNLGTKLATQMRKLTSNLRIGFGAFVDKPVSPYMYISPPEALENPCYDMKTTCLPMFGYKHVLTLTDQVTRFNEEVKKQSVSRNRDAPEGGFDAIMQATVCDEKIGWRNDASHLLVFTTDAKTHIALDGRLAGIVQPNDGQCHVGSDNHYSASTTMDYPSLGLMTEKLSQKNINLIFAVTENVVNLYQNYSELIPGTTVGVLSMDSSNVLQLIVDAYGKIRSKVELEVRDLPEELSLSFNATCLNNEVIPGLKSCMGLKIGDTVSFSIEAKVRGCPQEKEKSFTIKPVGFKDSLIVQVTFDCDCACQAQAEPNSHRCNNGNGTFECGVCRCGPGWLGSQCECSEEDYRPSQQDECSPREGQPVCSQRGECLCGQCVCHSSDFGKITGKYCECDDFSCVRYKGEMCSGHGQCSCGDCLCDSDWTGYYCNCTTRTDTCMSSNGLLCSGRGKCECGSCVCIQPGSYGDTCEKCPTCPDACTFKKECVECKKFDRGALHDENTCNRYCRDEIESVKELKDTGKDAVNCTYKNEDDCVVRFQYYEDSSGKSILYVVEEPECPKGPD
# run description: ELISA of soluble VHH, induced at 37 C; coating not given
parameter: OD490

* VHH-12 (VHH, also called clone 12) VHH: EVQLVESGGGSVQPGESLRLSCVASGYTVSSSCMAWFRQAPGKEREVVATIVVTSDTTSTFYADSVKGRFTISPDNAKNTLNLQMNSLEPSDTAMYYCAADRKWNVCSRGYRYTPNWANQFTFWGQGTQVTVSS | 1.23
* VHH-16 (VHH, also called clone 16) VHH: DVQLVESGGGSVQPGGSLRLSCAASGYTVENSCMAWFRQAPGKEREVVATIVTNNATGTFYADSVKGRFTVSQDNAKNTLNLQMNSLEPEDTAMYYCAADTKWIVCSRGYRYTPNWANQFKYWGQGTQVTVSS | 1.02
* VHH-15 (VHH, also called clone 15) VHH: EVQLVESGGGSVQPGESLRLSCVASGYTVSSSCMAWFRQAPGKEREVVATIVVTSDTTSTFYADSVKGRFTISPDNAKNTLNLQMNSLEPPDTAMYYCAADRKWNVCSRGYRYTPNWANQFTFWGQGTQVTVSS | 0.121
* VHH-13 (VHH, also called clone 13) VHH: HVQLVESGGGSVQPGESLRLSCVASGYTVSSSCMAWFRQAPGKEREVVATIVVTSDTTSTFYADSVKGRFTISPDNAKNTLNLQMNSLEPSDTAMYYCAADRKWNVCSRGYRYTPNWANQFTFWGQGTQVTVSS | 0.187
* VHH-25 (VHH, also called clone 25) VHH: EVQLVESGGGSVQAGGSLRLSCVVSGYTCSVYDMIWYRQPPGKEREFVSLINSNGRTTYADSVKGRFTISQNNAKNTVYLQMNSLKPEDTAMYYCHAACYSPSRLNYWGQGTQVTVSS | 0.193
* VHH-20 (VHH, also called clone 20) VHH: DVQLVESGGGSVQPGGSLRLSCAASGYTVDNSCMAWFRQAPGKEREVVATIVTNNATSTFYADSVKGRFTVSHDNAKNTLNLQMNTLEPEDTAMYYCAADTKWIVCSRGYRYTPNWANHFNYWGQGTLVTVSS | 0.111
* VHH-11 (VHH, also called clone 11) VHH: DVQLVESGGGSVQPGESLRLSCVASGYTVSSSCMAWFRQAPGKEREVVATIVVTSDTTSTFYADSVKGRFTISPDNAKNTLNLQMNSLEPSDTAMYYCAADRKWNVCSRGYRYTPNWANQFTFWGQGTLVTVSS | 0.119
